Target: T1, soluble hG-CSFR: amino acids 25-335 of Homo sapiens G-CSFR with mutations C78A, C163S and C228S and a … (Homo sapiens, UniProt Q99062 25-335)
T1 chain: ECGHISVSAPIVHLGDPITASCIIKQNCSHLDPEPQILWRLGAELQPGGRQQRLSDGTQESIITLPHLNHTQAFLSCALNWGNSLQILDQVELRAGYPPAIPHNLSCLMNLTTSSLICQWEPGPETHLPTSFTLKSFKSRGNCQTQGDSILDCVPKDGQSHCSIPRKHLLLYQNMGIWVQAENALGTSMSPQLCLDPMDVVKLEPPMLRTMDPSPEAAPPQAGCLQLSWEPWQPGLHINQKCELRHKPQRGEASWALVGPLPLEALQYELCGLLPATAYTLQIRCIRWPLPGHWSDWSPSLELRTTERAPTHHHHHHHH
Assay: SPR (Biacore), mAb captured by anti-human IgG, soluble hG-CSFR injected
For each of the binders below, state its Kd.
Give bare numbers, in nM.

- binder: "C1.2G-54 (antibody, human IgG4, V domains shown, also called antibody 54) VH: EVQLLESGGGLVQPGGSLRLSCAASGFTFSLYWMGWVRQAPGKGLEWVSSISSSGGVTPYADSVKGRFTISRDNSKNTLYLQMNSLRAEDTAVYYCAKLGELGMFLEWGQGTLVTVSS VL: DIQMTQSPSSLSASVGDRVTITCRASQGISSYLNWYQQKPGKAPKLLIYYASNLQNGVPSRFSGSGSGTDFTLTISSLQPEDFATYYCQQSMWMPMGFGGGTKVEIK"
  units label: "nM"
  Kd: 0.11
- binder: "C1.2G-1002 (antibody, human IgG4, V domains shown, also called antibody 1002) VH: EVQLLESGGGLVQPGGSLRLSCAASGFTFSLYWMGWVRQAPGKGLEWVSSISSSGGVTPYADSVKGRFTISRDNSKNTLYLQMNSLRAEDTAVYYCAKLGELGMYMNWGQGTLVTVSS VL: DIQMTQSPSSLSASVGDRVTITCRASQGISSYLNWYQQKPGKAPKLLIYYASNLQNGVPSRFSGSGSGTDFTLTISSLQPEDFATYYCQQSWTYGQTFGGGTKVEIK"
  units label: "nM"
  Kd: 0.167

--- query ---
Exercise: Dear colleague, I am looking for the recorded Kd of the following binder: C1.2G-1000 (antibody, human IgG4, V domains shown, also called antibody 1000) VH: EVQLLESGGGLVQPGGSLRLSCAASGFTFSLYWMGWVRQAPGKGLEWVSSISSSGGVTPYADSVKGRFTISRDNSKNTLYLQMNSLRAEDTAVYYCAKLGELGQMMYWGQGTLVTVSS VL: DIQMTQSPSSLSASVGDRVTITCRASQGISSYLNWYQQKPGKAPKLLIYYASNLQNGVPSRFSGSGSGTDFTLTISSLQPEDFATYYCQQSWMYAHMFGGGTKVEIK
Solution: 0.182

Sourced from patent US20160031998A1
